Tested on: PLK1 (Homo sapiens, UniProt P53350)
Sequence (P53350 whole entry): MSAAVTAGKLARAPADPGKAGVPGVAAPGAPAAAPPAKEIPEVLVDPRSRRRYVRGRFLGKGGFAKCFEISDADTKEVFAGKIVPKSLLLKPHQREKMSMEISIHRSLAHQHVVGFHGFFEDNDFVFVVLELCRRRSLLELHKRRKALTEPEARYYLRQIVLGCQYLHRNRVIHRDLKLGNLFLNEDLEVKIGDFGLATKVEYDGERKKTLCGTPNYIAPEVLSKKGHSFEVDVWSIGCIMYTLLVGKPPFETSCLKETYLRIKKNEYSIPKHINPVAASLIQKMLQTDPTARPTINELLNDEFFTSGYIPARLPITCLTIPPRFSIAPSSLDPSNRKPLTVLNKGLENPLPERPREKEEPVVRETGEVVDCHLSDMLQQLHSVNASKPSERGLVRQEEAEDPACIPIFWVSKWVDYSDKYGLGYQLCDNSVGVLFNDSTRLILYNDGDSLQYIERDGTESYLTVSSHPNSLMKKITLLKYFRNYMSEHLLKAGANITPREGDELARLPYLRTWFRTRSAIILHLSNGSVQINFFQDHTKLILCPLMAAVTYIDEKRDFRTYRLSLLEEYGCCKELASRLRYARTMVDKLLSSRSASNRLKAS
Experimental protocol: PLK1 protein kinase assay (CDC25C phosphorylation, [γ-32P]-ATP)
Assay type: biochemical
Study conditions: Table 2, PLK1 IC50; class symbols; read-out: PLK1 IC50
pIC50: −log10 of the molar value.
Listed below: pIC50 values for each entry.

Molecule: CN1C(=O)CCN(C2CCCC2)c2nc(Nc3ccc(NC(=O)C4CC4)cc3)ncc21
Property measured: pIC50
Observed: > 6.00

Molecule: CN1C(=O)C(C)(C)CN(C2CCCC2)c2nc(Nc3ccc4c(c3)CS(=O)(=O)C4)ncc21
Property measured: pIC50
Observed: > 6.00

Molecule: COc1cc(C(=O)NC2CN3CCC2CC3)ccc1Nc1ncc2c(n1)N(c1ccccc1C)CCC(=O)N2C (stereo not drawn)
Property measured: pIC50
Observed: > 6.00

Molecule: COc1cc(C(=O)NCC(C)(C)CN(C)C)ccc1Nc1ncc2c(n1)N(CC1CC1)CCC(=O)N2C
Property measured: pIC50
Observed: > 6.00

Molecule: COc1cc(C(=O)NC2CCN(Cc3ccccc3)CC2)ccc1Nc1ncc2c(n1)N(CC1CC1)CCC(=O)N2C
Property measured: pIC50
Observed: > 6.00

Molecule: COc1cc(C(=O)NCCCN(C)C)ccc1Nc1ncc2c(n1)N(CC1CC1)CCC(=O)N2C
Property measured: pIC50
Observed: > 6.00

Molecule: COc1cc(C(=O)NC2CCCN(C)C2)ccc1Nc1ncc2c(n1)N(c1ccccc1C)CCC(=O)N2C (stereo not drawn)
Property measured: pIC50
Observed: > 5.00

Molecule: COc1cc(C(=O)NCCOCCO)ccc1Nc1ncc2c(n1)N(C1CCCC1)CC1(CC1)C(=O)N2C
Property measured: pIC50
Observed: > 7.00

Molecule: COCCNC(=O)c1ccc(Nc2ncc3c(n2)N(C2CCCC2)CC(C)(C)C(=O)N3C)c(OC)c1
Property measured: pIC50
Observed: > 6.00

Molecule: COc1ccc(C(=O)NCCCO)cc1Nc1ncc2c(n1)N(C1CCCC1)CCC(=O)N2C
Property measured: pIC50
Observed: > 6.00

Inquiry: GET /values?readout=pIC50&item= COc1cc(C(=O)NC2CCN(Cc3ccccc3)CC2)ccc1Nc1ncc2c(n1)N(c1ccccc1C)CCC(=O)N2C
Reply text: > 5.00

Inquiry: GET /values?readout=pIC50&item= COc1cc(C(=O)NC2CCN(C)CC2)ccc1Nc1ncc2c(n1)N(CCC(C)C)CCC(=O)N2C
Reply text: > 6.00

Inquiry: GET /values?readout=pIC50&item= COc1cc(C(=O)O)ccc1Nc1ncc2c(n1)N(C1CCCC1)CC1(CC1)C(=O)N2C
Reply text: > 6.00

Inquiry: GET /values?readout=pIC50&item= CN1CCC(NC(=O)c2ccc(Nc3ncc4c(n3)N(C3CCCC3)CC3(CC3)C(=O)N4C)c(F)c2)CC1
Reply text: > 7.00

Inquiry: GET /values?readout=pIC50&item= COc1cc(C(N)=O)ccc1Nc1ncc2c(n1)N(C1CCCC1)CCC(=O)N2C
Reply text: > 7.00
